Tested on: Bacteroides stercoris
assayExplanation: growth AUC relative to DMSO control (median of replicates) (fraction); higher = more growth (less inhibition), active = hit call of the paper
conditionDescription: 20 µM; 24 h
resultType: growth AUC
Keep it simple and answer with nothing but the number.

# compound, valueObserved
measured = [
    ("COc1cc(OC)nc(Sc2cccc(Cl)c2C(=O)O)n1", 0.977),
]

Known value: Bacteroides stercoris growth AUC of the compound Cc1cc(C)nc(NC(=O)NS(=O)(=O)c2ccccc2C(=O)OC2COC2)n1 equals 1.04

// compound CC(C)C1(C)N=C(c2ncccc2C(=O)O)NC1=O (configuration not stated) , assay Bacteroides stercoris, growth AUC value: 1.17

The compound CCSC(=O)N1CCCCCC1 , tested on Bacteroides stercoris, showed growth AUC of 1

// compound COC(=O)C(C)N(C(=O)c1ccco1)c1c(C)cccc1C (configuration not stated) , assay Bacteroides stercoris, growth AUC value: 0.985

The compound CON(C)C(=O)Nc1ccc(Br)cc1 on Bacteroides stercoris: growth AUC was 1.16

Field growth AUC (Bacteroides stercoris), entry CCCCN(CCCC)SN(C)C(=O)Oc1cccc2c1OC(C)(C)C2 : 0.913

Let me check: CCCCCCCCn1sccc1=O , system Bacteroides stercoris, measured growth AUC is 0.995

Assay Bacteroides stercoris, sample COP(=O)(NC(C)=O)SC (configuration not stated) , growth AUC read: 1.02

Form: item ClC1=C(Cl)C2(Cl)C(CBr)CC1(Cl)C2(Cl)Cl (configuration not stated) ; test system Bacteroides stercoris; growth AUC: 1.02

Record O=[N+]([O-])c1cc(C(F)(F)F)c(Cl)c([N+](=O)[O-])c1Nc1ncc(C(F)(F)F)cc1Cl / Bacteroides stercoris, growth AUC recorded as 0.00814

Form: item CCNc1nc(NC(C)C)[nH]c(=O)n1 ; test system Bacteroides stercoris; growth AUC: 0.998
